test system: MCF7; assay: Selectivity index, ratio of IC50 for HLMEC cells to IC50 for human MCF7 cells; format: functional
measuredParameter: Ratio IC50
Number, no unit, nothing else.

Quickly give me recorded Ratio IC50 for CCCN(CCC)Cc1c(CC[C@@H](C)[C@H](O)[C@H](C)C(=O)[C@H](CC)[C@H]2O[C@](CC)([C@H]3CC[C@](O)(CC)[C@H](C)O3)C[C@@H]2C)ccc(C)c1O 0.73

Quickly give me recorded Ratio IC50 for CC[C@@H](C(=O)[C@@H](C)[C@@H](O)[C@H](C)CCc1ccc(C)c(O)c1C(=O)O)[C@H]1O[C@](CC)([C@H]2CC[C@](O)(CC)[C@H](C)O2)C[C@@H]1C 0.56

Quickly give me recorded Ratio IC50 for CC[C@@H](C(=O)[C@@H](C)[C@@H](O)[C@H](C)CCc1ccc(C)c(O)c1CN(C(C)C)C(C)C)[C@H]1O[C@](CC)([C@H]2CC[C@](O)(CC)[C@H](C)O2)C[C@@H]1C 0.84

Quickly give me recorded Ratio IC50 for CC[C@@H](C(=O)[C@@H](C)[C@@H](O)[C@H](C)CCc1ccc(C)c(O)c1CN(Cc1ccccc1)Cc1ccccc1)[C@H]1O[C@](CC)([C@H]2CC[C@](O)(CC)[C@H](C)O2)C[C@@H]1C 0.25

Quickly give me recorded Ratio IC50 for CCCCN(CCCC)Cc1c(CC[C@@H](C)[C@H](O)[C@H](C)C(=O)[C@H](CC)[C@H]2O[C@](CC)([C@H]3CC[C@](O)(CC)[C@H](C)O3)C[C@@H]2C)ccc(C)c1O 0.73

Quickly give me recorded Ratio IC50 for CC[C@@H](C(=O)[C@@H](C)[C@@H](O)[C@H](C)CCc1ccc(C)c(O)c1CN1CCOCC1)[C@H]1O[C@](CC)([C@H]2CC[C@](O)(CC)[C@H](C)O2)C[C@@H]1C 2.33
